# method-notes: CREB reporter modulators without forskolin, primary screen, cell-based, PC12, CRE-LacZ reporter, unstimulated (AID 1145)
# applied-conditions: no forskolin, luminescence, 4.5 h, higher = more signal, called active from +8 up or from −8 down
endpoint-label: z-score
// print number alone

Completed entries (count: 8):
compound: COC(=O)[C@@]1(CCC(=O)OC(C)(C)C)COC(c2ccc(OCCCO)cc2)=N1
numeric-value: 0.694
--
compound: C=CCNC(=O)[C@@H]1[C@H]2C(=O)O[C@H](c3ccccc3)[C@H](c3ccccc3)N2[C@H](c2ccc(O)cc2)[C@@]12C(=O)Nc1ccccc12
numeric-value: -0.348
--
compound: COc1ccc([Si](C)(C)[C@@H]2[C@@H](CCn3cc([C@H](O)c4ccccc4)nn3)O[C@]3(C(=O)N(C)c4c(Br)cc(C)cc43)[C@H]2C)cc1
numeric-value: 8.24
--
compound: C=CCC1(CC=C)C[C@H]2CO[C@H](c3ccc(OC)cc3)N2C1=O
numeric-value: 1.73
--
compound: NCCCCCNC(=O)[C@H]1C[C@H]2C(=O)NCC(=O)N2[C@H]1c1ccc(O)cc1
numeric-value: 0.679
--
compound: C=CC[C@@H](OC(=O)Nc1ccc(SC)cc1)c1ccc(OCCO)cc1
numeric-value: 14.4
--
compound: COc1c(C)cc(-c2cc3c(c(CCc4ccccc4)n2)[Si](C(C)C)(C(C)C)OC3)cc1C
numeric-value: 0.12
--
compound: C=C(/C(=C/C[C@H](OC(C)=O)c1cccc(OCCO)c1)c1cc(C(=O)OC)ccc1OC)C(C)C
numeric-value: 11.7

Bench note: what z-score did COC(=O)C1=CC(c2ccc(CO)cc2)=CC(C2CC2)N(C)C=C1C(=O)OC (centres undefined) show?
-0.195

Bench note: what z-score did COCCOC(=O)N1C(=O)[C@@]2(c3cc(C#CC4(O)CCCCCC4)ccc31)[C@H](c1ccc(O)cc1)N1[C@H](c3ccccc3)[C@H](c3ccccc3)OC(=O)[C@H]1[C@@H]2C(N)=O show?
-0.168

Bench note: what z-score did C=CCC(OC(C)=O)[C@@H]1[C@@H](N(Cc2cc3ccccc3o2)C(=O)c2ccc(-c3ccccc3)cc2)c2cc(OCCCO)ccc2N1C(=O)c1ccc(-c2ccccc2)cc1 (some centres undefined) show?
0.6

Bench note: what z-score did O=C(NC1CC1)[C@@H]1c2ccccc2C(=O)N(Cc2ccccc2C(F)(F)F)[C@H]1c1ccc(CO)cc1 show?
-0.0512

Bench note: what z-score did COCCOC(=O)N1C(=O)[C@@]2(c3ccccc31)[C@H](C(=O)Nc1nc3ccccc3s1)[C@H]1C(=O)O[C@H](c3ccccc3)[C@H](c3ccccc3)N1[C@@H]2c1ccc(O)cc1 show?
-0.199

Bench note: what z-score did CC1CC/C=C\[C@H]2OC34C=CCN(C(C)C)C(=O)[C@H]3N(C(CO)C(C)C)C(=O)[C@@H]4C2C(=O)O1 (some centres undefined) show?
-0.346

Bench note: what z-score did COCCCNC(=O)[C@@]1(Cc2ccccc2)N=C(c2ccc(OCCCO)cc2)O[C@H]1c1ccccc1N=[N+]=[N-] show?
1.74

###

Each item that follows carries a reported composite z-score.
# method-notes: binders of probe aFSTL3 on microarray, primary screen, stem cell growth factor project, biochemical, small-molecule microarray, fluorescence 635/667 (AID 1064);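 also: measures binding of the biotinylated anti-FSTL3 antibody to printed compounds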
# applied-conditions: higher = more signal

Completed entries (count: 4):
compound: CC(C)(C)OC(=O)CC[C@@]12N=C(c3ccc(OCCCO)cc3)O[C@@H]1c1ccccc1N(Cc1ccccc1)C2=O
composite z-score: 0.96
--
compound: CN1C=C(C(=O)OCCS(C)(=O)=O)C(C(=O)OCCS(C)(=O)=O)=CC(CCCO)=CC1c1cccs1 (configuration not stated)
composite z-score: -0.329
--
compound: C[N+](C)(C)CCCC[C@@H]1NC(=O)[C@H]2C[C@@H](C(=O)NCCCCCN)[C@@H](c3cccc(OCCO)c3)N2C1=O
composite z-score: 0.89
--
compound: C[N+](C)(C)CCCC[C@@H]1NC(=O)[C@@H]2C[C@H](C(=O)NCCCCCNC(=O)CS)[C@H](c3ccc(O)cc3)N2C1=O
composite z-score: 0.152

Bench note: what composite z-score did COc1c(C)cc(-c2cc3c(c(CCc4ccccc4)n2)[Si](C(C)C)(C(C)C)OC3)cc1C show?
-0.496

Bench note: what composite z-score did CCOC(=O)C[C@H]1[C@H](OC(=O)c2ccc(-c3ccccc3)cc2)[C@@H](NC(=O)c2ccccc2)c2cc(OCCCO)ccc2N1C(=O)c1ccccc1 show?
-0.3

Bench note: what composite z-score did CC(C)NC(=O)[C@@H]1c2ccccc2C(=O)N(Cc2cc(F)cc(C(F)(F)F)c2)[C@H]1c1ccc(CO)cc1 show?
1.02

###

# method-notes: FRG1 promoter luciferase signal modulators, primary screen, FRG1 inhibition for FSHD, cell-based, C2C12 myotubes, firefly/Renilla luciferase, luminescence (AID 1084)
# applied-conditions: higher = more signal, called active from +8 up or from −8 down
Active and inactive are the calls of the source.
endpoint-label: z-score

Completed entries (count: 6):
compound: CC(C)C(=C=CC[C@@H](O)c1ccc(CO)o1)CCO
z-score: 0.136 (inactive)
//
compound: COC(=O)C(CC#Cc1ccc2c(c1)[C@]1(C(=O)N2)[C@H](C(N)=O)[C@H]2C(=O)O[C@H](c3ccccc3)[C@H](c3ccccc3)N2[C@@H]1c1ccc(O)cc1)C(=O)OC
z-score: -0.117 (inactive)
//
compound: CC(C)C[C@@H]1NC(=O)[C@@]23C(=O)N[C@@H](Cc4ccccc4)C2[C@H](C)[C@@]2(C)O[C@H]2C3/C=C/CC/C=C/CNC(=O)[C@@H](C)NC1=O (stereo not given in full)
z-score: -1.05 (inactive)
//
compound: C=C(CCCC)/C(=C/C[C@H](OC(=O)c1ccncc1)c1ccc(CO)o1)c1cnc2ccccc2c1
z-score: -0.587 (inactive)
//
compound: C[N+](C)(C)CCCCNC(=O)[C@@H]1C[C@@H]2C(=O)NCC(=O)N2[C@@H]1c1cccc(OCCO)c1
z-score: -0.53 (inactive)
//
compound: CC(C)C[C@@H]1NC(=O)[C@@H]2C[C@H](C(=O)NCCCCCNC(=O)CS)[C@H](c3cccc(OCCO)c3)N2C1=O
z-score: 0.152 (inactive)

Bench note: what z-score did C#CCOc1ccc(C[C@H]2C(=O)O[C@H](Cc3ccccc3)[C@H](/C=C/C3CC3)N2CC#C)cc1 show?
-4.41 (inactive)

Bench note: what z-score did Cc1ccc(N2C(=O)c3ccccc3[C@](C)(C(=O)NC3CC3)[C@@H]2c2ccc(CO)cc2)nc1 show?
0.843 (inactive)

Bench note: what z-score did COCCOC(=O)N1C(=O)[C@@]2(c3ccccc31)[C@H](C(=O)Nc1nc3ccccc3s1)[C@H]1C(=O)O[C@H](c3ccccc3)[C@H](c3ccccc3)N1[C@@H]2c1ccc(O)cc1 show?
2.8 (inactive)

Bench note: what z-score did C=C(C1=CCN(S(=O)(=O)c2ccc(C)cc2)C1)[C@@H](OC(C)=O)[C@@H]1CCCN1S(=O)(=O)c1ccccc1[N+](=O)[O-] show?
-3.21 (inactive)

Bench note: what z-score did C=C(COC)/C(=C/C[C@H](OC(C)=O)c1cccc(OCCO)c1)c1cc(C(=O)OC)ccc1OC show?
-3.63 (inactive)

Bench note: what z-score did O=c1n(-c2ccccc2)c(=O)n2n1CC(COc1ccccc1)=C1[C@@H](CCc3ccccc3)OB(O)C[C@@H]12 show?
-4.24 (inactive)

Bench note: what z-score did CC(C)C[C@@H]1NC(=O)[C@H]2C[C@@H](C(=O)NCCCC[N+](C)(C)C)[C@@H](c3cccc(OCCO)c3)N2C1=O show?
0.683 (inactive)

Bench note: what z-score did [N-]=[N+]=NCc1ccccc1C[C@]1(C(=O)NCc2ccccc2)N=C(c2ccc(OCCCO)cc2)O[C@H]1c1ccccc1 show?
-2.74 (inactive)

Bench note: what z-score did CCN(CC)c1ccc(N2CC=CC34O[C@@H]5C=CCOC(=O)[C@@H]5[C@H]3C(=O)N(C(CO)C(C)C)[C@@H]4C2=O)cc1 (stereo not given in full) show?
0.232 (inactive)

###

# experimental-target: Torsin-1A (Homo sapiens) (UniProt O14656)
# Sequence (O14656 whole entry, looked up): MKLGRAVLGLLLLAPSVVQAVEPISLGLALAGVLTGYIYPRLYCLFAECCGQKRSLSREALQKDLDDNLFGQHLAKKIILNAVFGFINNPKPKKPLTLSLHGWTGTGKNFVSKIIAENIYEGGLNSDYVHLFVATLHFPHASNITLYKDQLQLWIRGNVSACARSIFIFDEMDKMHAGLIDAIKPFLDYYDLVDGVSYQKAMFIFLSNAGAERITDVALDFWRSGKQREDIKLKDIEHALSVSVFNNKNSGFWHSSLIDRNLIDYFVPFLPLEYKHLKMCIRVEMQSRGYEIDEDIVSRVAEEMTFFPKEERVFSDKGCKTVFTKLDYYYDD
# method-notes: torsin A binders from cell lysate, primary screen, small-molecule microarray, wild-type, 635/667 nm (AID 1149)
# applied-conditions: COS7 hTOR1A-WT lysate, 635 nm fluorescence, higher = more signal
Each item that follows carries a reported composite z-score.
// print number alone

Completed entries (count: 3):
compound: CO[C@H]1O[C@H](CO)[C@@H](OC(=O)Nc2ccccc2)[C@H](OC(=O)Nc2ccccc2-c2ccccc2)[C@H]1OC(=O)Nc1ccccc1-c1ccccc1
experimental-target: Torsin-1A (Homo sapiens) (UniProt O14656)
numeric-value: 0.56
//
compound: C=CC[C@@H](OC(=O)Nc1ccc(SC)cc1)c1ccc(OCCO)cc1
experimental-target: Torsin-1A (Homo sapiens) (UniProt O14656)
numeric-value: 1.76
//
compound: CC(C)[Si](C#C[Si](C(C)C)(C(C)C)C(C)C)(O[C@H](C)c1cn([C@H](C)c2ccccc2)nn1)C(C)C
experimental-target: Torsin-1A (Homo sapiens) (UniProt O14656)
numeric-value: 0.144

Bench note: what composite z-score did C#CCN1C(C(=O)OCC)OC[C@H]1c1ccccc1 (some centres undefined) show?
3.34
